Below, each entry is listed alongside its reported Total Related Substances.
Experiment: Stability indicating HPLC assay and related substances on storage (Example 3)
Format: physicochemical
Conditions: 3 months, 40° C./75% RH
Quick note: give the figure in %, leave out the unit.

Some compounds with recorded Total Related Substances:
1. CN1CCC23c4c5ccc(O)c4OC2C(OC2OC(C(=O)O)C(O)C(O)C2O)C=CC3C1C5.O=P(O)(O)O (stereo not drawn) [Morphine-6-glucuronide phosphate]; 5.99
2. CN1CC[C@]23c4c5ccc(O)c4O[C@H]2[C@@H](O[C@@H]2O[C@H](C(=O)O)[C@@H](O)[C@H](O)[C@H]2O)C=C[C@H]3[C@H]1C5 [Morphine-6-glucuronide base, morphine-6-β-D-glucuronide]; 4.34
3. CN1CCC23c4c5ccc(O)c4OC2C(OC2OC(C(=O)O)C(O)C(O)C2O)C=CC3C1C5.CN1CCC23c4c5ccc(O)c4OC2C(OC2OC(C(=O)O)C(O)C(O)C2O)C=CC3C1C5.O=C(O)C=CC(=O)O (stereo not drawn) [Morphine-6-glucuronide fumarate]; 9.07

Requested field: Total Related Substances. Item: CN1CCC23c4c5ccc(O)c4OC2C(OC2OC(C(=O)O)C(O)C(O)C2O)C=CC3C1C5.CN1CCC23c4c5ccc(O)c4OC2C(OC2OC(C(=O)O)C(O)C(O)C2O)C=CC3C1C5.O=S(=O)(O)O (stereo not drawn) [Morphine-6-glucuronide sulphate]
17.98

Same thing, different compound: Br.CN1CC[C@]23c4c5ccc(O)c4O[C@H]2[C@@H](O[C@@H]2O[C@H](C(=O)O)[C@@H](O)[C@H](O)[C@H]2O)C=C[C@H]3[C@H]1C5 [Morphine-6-glucuronide hydrobromide]
0.72

Same thing, different compound: CN1CCC23c4c5ccc(O)c4OC2C(OC2OC(C(=O)O)C(O)C(O)C2O)C=CC3C1C5.CN1CCC23c4c5ccc(O)c4OC2C(OC2OC(C(=O)O)C(O)C(O)C2O)C=CC3C1C5.O=C(O)C=CC(=O)O (stereo not drawn) [Morphine-6-glucuronide maleate]
9.94
